Tested on: mouse hepatocytes
Experiment: In vitro hepatotoxicity test
Type: cell-based
Conditions: mouse hepatocyte monolayers exposed 1 day, morphological evaluation
Numbered stars: 1 amine (or outer) side, 2 acyl side, 3 side chain; on linkers, the order of the positions; unused ones are H or OH. Bridge positions count the residues as written; N and C are the ends. Square brackets hold non-standard residues; d marks the D form. Peptide text beside a SMILES is read from it. * marks the point of attachment. ξ: configuration not given here. pTerphenylCO(4''-OnC5H11) = CCCCCOc1ccc(-c2ccc(-c3ccc(C(=O)*)cc3)cc2)cc1; Orn(4R-OH,5R-OH) = O=C([C@H](C[C@@H](O)[C@@H](O)N[*:3])N[*:1])[*:2]; hTyr(3S-OH,4S-OH) = N[C@H](C(=O)O)[C@H](O)[C@@H](O)c1ccc(O)cc1; X5 = CC(C)CCCOc1ccc(-c2ccc(CC[C@H](CC(=O)[*:1])N[*:2])cc2)cc1; Pro(3S-OH,4S-Me) = C[C@H]1CN[C@H](C(=O)O)[C@H]1O; X12 = NCC(=O)Nc1cc(CC(N[*:1])C(=O)[*:2])ccc1O; X9 = CCCCCCCCCCCCC[C@H](CC(=O)[*:1])O[*:2]; X2 = NC(=O)CC(O)C(N[*:1])C(=O)[*:2]; Hyp = O=C(O)[C@@H]1C[C@@H](O)CN1; X1 = O=C(C1C(O)CCN1[*:1])[*:2]; ξY = NC(Cc1ccc(O)cc1)C(=O)O; ξHyp = O=C(O)C1CC(O)CN1; ξOrn = NCCCC(N)C(=O)O; ξT = CC(O)C(N)C(=O)O; ξV = CC(C)C(N)C(=O)O; ξA = CC(N)C(=O)O
Readings of Cytotoxicity to hepatocyte for the listed compounds

Reference set, count: 3
>  <compound>
CCCCCOc1ccc(-c2ccc(-c3ccc(C(=O)N[C@H]4C[C@@H](O)[C@@H](O)NC(=O)[C@@H]5[C@@H](O)[C@@H](C)CN5C(=O)[C@H]([C@@H](C)O)NC(=O)[C@H]([C@H](O)[C@@H](O)c5ccc(O)cc5)NC(=O)[C@@H]5C[C@@H](O)CN5C(=O)[C@H]([C@@H](C)O)NC4=O)cc3)cc2)cc1 [LY303366, reference compound] ({pTerphenylCO(4''-OnC5H11)}-[Orn(4R-OH,5R-OH)]T[Hyp][hTyr(3S-OH,4S-OH)]T[Pro(3S-OH,4S-Me)]; lactam 1-C)

>  <Cytotoxicity to hepatocyte>
10 µg/mL

$$$$
>  <compound>
CCCCCCCCCCCCC[C@@H]1CC(=O)NC(C(C)O)C(=O)NC(C)C(=O)NC(Cc2ccc(O)c(NC(=O)CN)c2)C(=O)NC(C(C)C)C(=O)N2CC(O)CC2C(=O)NC(C(C)O)C(=O)NC(C(C)O)C(=O)N2CCC(O)C2C(=O)NC(C(O)CC(N)=O)C(=O)NCC(=O)NC(C(C)O)C(=O)NC(CCCNC(=O)CN)C(=O)O1 (stereo partly shown) [Aerothricin 21] ([ξT][ξA][X12][ξV][ξHyp][ξT][ξT][X1][X2]G[ξT][ξOrn](Gly); linker N-C via X9)

>  <Cytotoxicity to hepatocyte>
>100 µg/mL

$$$$
>  <compound>
CC(C)CCCOc1ccc(-c2ccc(CC[C@@H]3CC(=O)NC(C(C)O)C(=O)NC(C)C(=O)NC(Cc4ccc(O)cc4)C(=O)NC(C(C)C)C(=O)N4CC(O)CC4C(=O)NC(C(C)O)C(=O)NC(C(C)O)C(=O)N4CCC(O)C4C(=O)NC(C(O)CC(N)=O)C(=O)NCC(=O)NC(C(C)O)C(=O)NC(CCCN)C(=O)N3)cc2)cc1 (stereo partly shown) [Aerothricin 45] ([ξT][ξA][ξY][ξV][ξHyp][ξT][ξT][X1][X2]G[ξT][ξOrn]; linker N-C via X5)

>  <Cytotoxicity to hepatocyte>
>100 µg/mL

$$$$

Return Cytotoxicity to hepatocyte (reported value) for this compound: CCCCCCCCCCOc1ccc(CC[C@@H]2CC(=O)NC(C(C)O)C(=O)NC(C)C(=O)NC(Cc3ccc(O)cc3)C(=O)NC(C(C)C)C(=O)N3CC(O)CC3C(=O)NC(C(C)O)C(=O)NC(C(C)O)C(=O)N3CCC(O)C3C(=O)NC(C(O)CC(N)=O)C(=O)NCC(=O)NC(C(C)O)C(=O)NC(CCCN)C(=O)N2)cc1 (single isomer, unassigned)
>100 µg/mL
